biological target: Human TRPA1 expressing CHO cells (Homo sapiens, UniProt O75762); assay: 45Calcium uptake assay: inhibition of AITC induced cellular uptake of radioactive calcium; settings: AITC 30 μM; human TRPA1 CHO cells; read-out: IC50 value (range)
Sequence (O75762 whole entry): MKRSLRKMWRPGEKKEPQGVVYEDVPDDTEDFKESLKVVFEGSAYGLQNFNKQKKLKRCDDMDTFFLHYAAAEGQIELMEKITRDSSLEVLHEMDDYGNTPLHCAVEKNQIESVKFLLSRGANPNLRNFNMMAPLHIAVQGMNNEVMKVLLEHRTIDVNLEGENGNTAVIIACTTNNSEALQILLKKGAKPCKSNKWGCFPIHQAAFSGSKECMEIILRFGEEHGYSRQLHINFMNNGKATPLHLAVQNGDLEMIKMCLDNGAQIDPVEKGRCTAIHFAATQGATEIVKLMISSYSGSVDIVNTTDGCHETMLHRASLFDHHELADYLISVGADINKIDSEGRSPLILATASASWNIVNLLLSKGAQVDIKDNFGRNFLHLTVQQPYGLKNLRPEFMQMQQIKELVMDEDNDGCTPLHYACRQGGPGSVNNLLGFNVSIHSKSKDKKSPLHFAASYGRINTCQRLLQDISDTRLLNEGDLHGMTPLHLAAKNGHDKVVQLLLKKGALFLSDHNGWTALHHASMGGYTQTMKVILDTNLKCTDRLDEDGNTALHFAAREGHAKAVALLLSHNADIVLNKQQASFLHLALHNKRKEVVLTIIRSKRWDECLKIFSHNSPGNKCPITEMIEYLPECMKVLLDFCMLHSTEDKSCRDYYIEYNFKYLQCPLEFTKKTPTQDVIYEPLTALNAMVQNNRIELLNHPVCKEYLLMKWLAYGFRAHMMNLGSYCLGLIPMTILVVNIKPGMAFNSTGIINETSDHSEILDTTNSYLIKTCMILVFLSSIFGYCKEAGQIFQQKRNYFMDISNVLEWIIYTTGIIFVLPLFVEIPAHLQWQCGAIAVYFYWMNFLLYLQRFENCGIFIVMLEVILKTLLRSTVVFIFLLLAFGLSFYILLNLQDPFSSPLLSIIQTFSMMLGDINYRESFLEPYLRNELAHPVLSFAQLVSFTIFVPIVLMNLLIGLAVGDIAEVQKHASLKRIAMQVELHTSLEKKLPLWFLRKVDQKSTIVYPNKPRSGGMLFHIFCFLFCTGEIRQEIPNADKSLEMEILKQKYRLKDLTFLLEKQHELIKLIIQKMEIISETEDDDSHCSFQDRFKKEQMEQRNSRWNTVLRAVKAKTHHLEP
EXPERIMENTAL READOUT: IC50

Need IC50 of Cn1c(=O)c2c(CC(=O)Nc3nc(-c4ccc(Cl)cc4F)cs3)cccc2n(C)c1=O [Example 51] , thanks.
> 100 nM

----------
Property: inhibition at 10 µM; scope: individual compounds
biological target: Human TRPA1 expressing CHO cells (Homo sapiens, UniProt O75762); construct: expressed in transfected cells; host or cells: CHO cells (under G-418 selection); assay: 45Calcium uptake assay: inhibition of AITC induced cellular uptake of radioactive calcium; type: cell-based; conditions: 10.0 μM test compound; AITC 30 μM; human TRPA1 CHO cells; read-out: Percentage inhibition at 10.0 μM
Record the result as number plus unit.

Examples with answers:
| COMPOUND | TARGET ENTITY | TEST VALUE |
| --- | --- | --- |
| Cn1c(=O)c2c(CC(=O)Nc3nc(-c4ccccc4)cs3)cccc2n(C)c1=O [Example 8] | Human TRPA1 expressing CHO cells (Homo sapiens, UniProt O75762) | 79.9% |
| Cn1c(=O)n(CC2CC2)c(=O)c2c(CC(=O)Nc3nc(-c4ccc(C(C)(C)C)cc4)cs3)cccc21 [Example 27] | Human TRPA1 expressing CHO cells (Homo sapiens, UniProt O75762) | 29.6% |
| Cn1c(=O)c2c(CC(=O)Nc3nc(-c4ccc(Cl)cc4Cl)cs3)cccc2n(C)c1=O [Example 45] | Human TRPA1 expressing CHO cells (Homo sapiens, UniProt O75762) | 95.5% |
| Cn1c(=O)c2c(CC(=O)Nc3nc(-c4cc(Cl)ccc4Cl)cs3)cccc2n(C)c1=O [Example 46] | Human TRPA1 expressing CHO cells (Homo sapiens, UniProt O75762) | 87.9% |
| Cn1c(=O)c2c(CC(=O)Nc3nc(-c4cc(C(F)(F)F)ccc4Cl)cs3)cccc2n(C)c1=O [Example 56] | Human TRPA1 expressing CHO cells (Homo sapiens, UniProt O75762) | 99.8% |
| Cn1c(=O)c2c(CC(=O)Nc3nc(-c4c(F)ccc(C(F)(F)F)c4F)cs3)cccc2n(C)c1=O [Example 68] | Human TRPA1 expressing CHO cells (Homo sapiens, UniProt O75762) | 98.6% |
| Cn1c(=O)c2c(CC(=O)Nc3nc(-c4cccc(Cl)c4)cs3)cccc2n(C)c1=O [Example 11] | Human TRPA1 expressing CHO cells (Homo sapiens, UniProt O75762) | 99.1% |

Need inhibition at 10 µM of Cn1c(=O)c2c(CC(=O)Nc3nc(-c4c(F)cccc4F)cs3)cccc2n(C)c1=O [Example 33] , thanks.
79.8%
